Below, each entry is listed alongside its reported GI50.
# Test system: HOP-92 NSCLC
# experiment-summary: NCI tumour cell line growth inhibition, 48 h

Which GI50 is listed for "CN(C)CCC(=O)NCc1c2nc3ccccc3nc2n2ccccc12" ? 34600 nM

Further cases:
Data request, read-out GI50, for "CCNC(=O)CCCCC(=O)c1c(C)[nH]c(/C=C2\N=C(c3ccc[nH]3)C=C2OC)c1C" 2040 nM

// returns reported GI50 for input "O=C(Nn1c2c(sc1=NC1CC1)C(=O)c1ccccc1C2=O)c1cc2ccc1CCc1ccc(cc1)CC2" 2260 nM

Give the measured GI50 of "CO[C@H]1/C=C/C[C@H](C)[C@@H](C)S(=O)(=O)NC(=O)c2ccc3c(c2)N(C[C@@H]2CC[C@H]21)C[C@@]1(CCCc2cc(Cl)ccc21)CO3" . 1550 nM

Every entry's value here was drawn from PubChem BioAssay (NCI).
